# EXPERIMENT: Permeability of the compound assessed as drug level in acceptor plate at 200 uM measured after 5 hrs at pH 7.4 by PAMPA
# Assay type: ADME
# EXPERIMENTAL_CONDITIONS: pH 7.4, 5 h
PARAMETER: Drug uptake (µM)

>>> df
                                   compound  assay_result
0  N=C(N)Nc1ccc(CNC(=O)[C@@H](NC(=O)c2ccc(OC3CCCCC3)cc2)c2ccc(OCc3ccccc3)cc2)cc1.O=C(O)C(F)(F)F           1.6
1     Cn1c(=O)c2c(ncn2C)n(C)c1=O [CAFFEINE]          31.9
2  CCCCCCC(=O)N[C@H](C(=O)NCc1ccc(NC(=N)N)cc1)c1ccc(OCc2ccccc2)cc1.O=C(O)C(F)(F)F           1.9
3  CCCCCC(=O)N[C@H](C(=O)NCc1ccc(NC(=N)N)cc1)c1ccc(OCc2ccccc2)cc1.O=C(O)C(F)(F)F           7.5
4  O=C1NC(=O)C(c2ccccc2)(c2ccccc2)N1 [PHENYTOIN]          23.4

* * *

# MEASUREMENT_TARGET: Genome polyprotein (West Nile virus) (UniProt P06935)
# Sequence (P06935 whole entry): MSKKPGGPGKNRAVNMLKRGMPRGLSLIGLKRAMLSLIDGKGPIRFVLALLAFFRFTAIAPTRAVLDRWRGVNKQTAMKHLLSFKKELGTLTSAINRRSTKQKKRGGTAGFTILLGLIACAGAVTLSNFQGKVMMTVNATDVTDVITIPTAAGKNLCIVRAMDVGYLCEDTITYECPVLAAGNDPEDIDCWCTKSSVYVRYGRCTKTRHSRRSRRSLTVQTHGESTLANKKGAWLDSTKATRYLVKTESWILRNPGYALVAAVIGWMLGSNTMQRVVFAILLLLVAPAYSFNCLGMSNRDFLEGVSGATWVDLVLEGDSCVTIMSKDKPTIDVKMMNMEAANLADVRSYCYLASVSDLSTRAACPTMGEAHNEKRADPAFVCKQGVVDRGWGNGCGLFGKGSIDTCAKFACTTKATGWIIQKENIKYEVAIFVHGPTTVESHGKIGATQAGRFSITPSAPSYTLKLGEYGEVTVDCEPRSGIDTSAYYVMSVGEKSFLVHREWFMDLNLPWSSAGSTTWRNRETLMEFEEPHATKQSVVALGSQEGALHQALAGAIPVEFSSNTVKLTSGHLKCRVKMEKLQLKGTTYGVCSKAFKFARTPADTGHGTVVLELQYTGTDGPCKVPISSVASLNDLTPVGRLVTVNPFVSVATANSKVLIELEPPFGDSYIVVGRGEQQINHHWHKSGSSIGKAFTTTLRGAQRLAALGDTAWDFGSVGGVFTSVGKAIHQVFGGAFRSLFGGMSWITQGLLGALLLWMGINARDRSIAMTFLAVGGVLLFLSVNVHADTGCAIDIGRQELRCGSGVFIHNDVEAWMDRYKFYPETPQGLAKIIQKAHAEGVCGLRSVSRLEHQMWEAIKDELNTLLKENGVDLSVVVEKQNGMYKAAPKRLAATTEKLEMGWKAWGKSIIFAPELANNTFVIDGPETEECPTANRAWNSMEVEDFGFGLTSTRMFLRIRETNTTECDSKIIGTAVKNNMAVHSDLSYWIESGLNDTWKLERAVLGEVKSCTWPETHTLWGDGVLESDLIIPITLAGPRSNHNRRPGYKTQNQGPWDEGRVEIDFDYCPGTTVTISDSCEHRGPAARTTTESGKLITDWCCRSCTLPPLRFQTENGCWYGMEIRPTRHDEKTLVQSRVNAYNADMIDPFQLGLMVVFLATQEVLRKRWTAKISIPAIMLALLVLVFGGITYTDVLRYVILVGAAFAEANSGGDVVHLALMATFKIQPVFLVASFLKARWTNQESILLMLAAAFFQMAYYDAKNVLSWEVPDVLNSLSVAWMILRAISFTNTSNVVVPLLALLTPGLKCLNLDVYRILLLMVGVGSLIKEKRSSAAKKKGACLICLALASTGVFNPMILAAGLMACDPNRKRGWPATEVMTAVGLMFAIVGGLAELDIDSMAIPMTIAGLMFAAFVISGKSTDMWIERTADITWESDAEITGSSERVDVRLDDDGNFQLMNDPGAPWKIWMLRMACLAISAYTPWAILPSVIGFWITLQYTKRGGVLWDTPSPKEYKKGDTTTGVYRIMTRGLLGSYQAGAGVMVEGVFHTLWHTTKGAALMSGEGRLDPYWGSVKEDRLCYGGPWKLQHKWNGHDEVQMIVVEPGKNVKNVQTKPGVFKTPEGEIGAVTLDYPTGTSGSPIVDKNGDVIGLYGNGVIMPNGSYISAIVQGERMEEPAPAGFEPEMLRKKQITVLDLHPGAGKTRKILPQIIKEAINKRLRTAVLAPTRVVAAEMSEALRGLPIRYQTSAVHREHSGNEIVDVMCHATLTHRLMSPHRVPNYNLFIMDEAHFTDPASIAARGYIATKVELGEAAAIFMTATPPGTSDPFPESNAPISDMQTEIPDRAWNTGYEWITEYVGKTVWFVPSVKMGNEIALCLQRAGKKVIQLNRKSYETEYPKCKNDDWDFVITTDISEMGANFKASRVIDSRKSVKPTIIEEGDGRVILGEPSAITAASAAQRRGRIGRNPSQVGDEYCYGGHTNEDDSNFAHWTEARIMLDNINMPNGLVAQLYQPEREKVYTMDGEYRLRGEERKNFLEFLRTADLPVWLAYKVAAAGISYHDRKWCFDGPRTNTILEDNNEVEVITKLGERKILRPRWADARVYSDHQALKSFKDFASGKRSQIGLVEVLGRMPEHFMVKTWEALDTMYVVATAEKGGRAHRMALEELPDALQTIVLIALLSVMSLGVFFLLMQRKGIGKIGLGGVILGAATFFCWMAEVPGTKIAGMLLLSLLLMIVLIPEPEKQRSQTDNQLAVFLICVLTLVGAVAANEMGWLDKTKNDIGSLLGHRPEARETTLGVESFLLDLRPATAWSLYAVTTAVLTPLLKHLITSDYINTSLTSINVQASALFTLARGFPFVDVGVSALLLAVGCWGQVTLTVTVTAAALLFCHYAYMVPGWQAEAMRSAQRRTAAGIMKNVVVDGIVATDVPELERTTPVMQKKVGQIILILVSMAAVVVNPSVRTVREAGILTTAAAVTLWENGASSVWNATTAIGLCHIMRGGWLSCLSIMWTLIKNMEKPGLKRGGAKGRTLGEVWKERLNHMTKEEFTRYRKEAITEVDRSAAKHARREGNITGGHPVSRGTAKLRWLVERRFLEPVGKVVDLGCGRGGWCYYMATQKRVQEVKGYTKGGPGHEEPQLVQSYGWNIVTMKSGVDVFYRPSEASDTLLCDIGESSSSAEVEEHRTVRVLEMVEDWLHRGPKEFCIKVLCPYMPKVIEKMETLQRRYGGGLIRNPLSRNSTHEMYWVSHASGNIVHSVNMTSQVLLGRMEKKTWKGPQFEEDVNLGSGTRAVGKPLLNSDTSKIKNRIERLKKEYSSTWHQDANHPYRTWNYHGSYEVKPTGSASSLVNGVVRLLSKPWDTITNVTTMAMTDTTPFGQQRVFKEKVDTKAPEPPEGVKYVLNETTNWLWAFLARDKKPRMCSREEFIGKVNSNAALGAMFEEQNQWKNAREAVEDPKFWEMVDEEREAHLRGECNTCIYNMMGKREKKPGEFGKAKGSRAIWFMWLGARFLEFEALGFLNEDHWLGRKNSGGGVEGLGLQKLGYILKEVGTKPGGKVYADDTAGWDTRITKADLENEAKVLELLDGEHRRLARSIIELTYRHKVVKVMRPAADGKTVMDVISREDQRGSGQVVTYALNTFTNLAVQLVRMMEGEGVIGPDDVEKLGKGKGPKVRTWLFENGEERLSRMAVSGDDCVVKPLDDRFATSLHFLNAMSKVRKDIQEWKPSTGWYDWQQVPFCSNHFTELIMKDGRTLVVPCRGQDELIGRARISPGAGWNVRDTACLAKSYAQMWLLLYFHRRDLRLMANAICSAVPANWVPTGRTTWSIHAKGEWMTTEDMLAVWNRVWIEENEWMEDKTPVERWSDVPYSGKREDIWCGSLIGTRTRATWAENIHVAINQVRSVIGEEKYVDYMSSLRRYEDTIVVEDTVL
# EXPERIMENT: Inhibition of West Nile virus NS2B-NS3 protease expressed in Escherichia coli BL21 lambda (DE3) cells at 50 uM using Abz-Gly-Leu-Lys-Arg-Gly-Gly-3-(NO2)Tyr as substrate preincubated for 15 mins followed by substrate addition measured for 15 mins by fluorimetric analysis relative to control
inhibition below 30% gives NO; inhibition at or above it gives YES.

>>> df
                                chem_smiles  label_class
0  CCCCCC(=O)N[C@H](C(=O)NCc1ccc(N)cc1)c1ccc(OCc2ccccc2)cc1.O=C(O)C(F)(F)F           NO
1  CCCCCC(=O)N[C@@H](C(=O)NCc1ccc(NC(=N)N)cc1)c1ccc(OCc2ccc(Cl)c(Cl)c2)cc1.O=C(O)C(F)(F)F          YES
2  CCCCCC(=O)N[C@H](C(=O)NCCCCCCNC(=N)N)c1ccc(OCc2ccccc2)cc1           NO
3  N=C(N)Nc1ccc(CNC(=O)[C@@H](NC(=O)c2ccc(OCc3ccccc3)cc2)c2ccc(OCc3ccccc3)cc2)cc1.O=C(O)C(F)(F)F          YES
4  CCCCC(=O)N[C@H](C(=O)NCc1ccc(NC(=N)N)cc1)c1ccc(OCc2ccccc2)cc1.O=C(O)C(F)(F)F           NO
5  N=C(N)NCc1ccc(CNC(=O)[C@H](NC(=O)c2ccc(Oc3ccccc3)cc2)c2ccc(OCc3ccc(Cl)c(Cl)c3)cc2)cc1.O=C(O)C(F)(F)F          YES
6  CCCCCC(=O)N[C@H](C(=O)NCc1ccc(CNC(=N)N)cc1)c1ccc(OCc2ccccc2)cc1.O=C(O)C(F)(F)F          YES

* * *

# MEASUREMENT_TARGET: Genome polyprotein (dengue virus type 2) (UniProt P29990)
# EXPERIMENT: Inhibition of Dengue virus serotype 2 NS2B-NS3 protease expressed in Escherichia coli BL21 lambda (DE3) cells at 50 uM using Abz-Nle-Lys-Arg-Arg-Ser-3-(NO2)Tyr as substrate preincubated for 15 mins followed by substrate addition and measured for 15 mins by FRET assay relative to control
inhibition below 30% gives 0.0; inhibition at or above it gives 1.0.

>>> df
                                 chem_smiles  label_class
 0  N=C(N)Nc1ccc(CNC(=O)[C@@H](NC(=O)c2ccc(OCc3ccc(Cl)cc3)cc2)c2ccc(OCc3ccccc3)cc2)cc1.O=C(O)C(F)(F)F          1.0
 1  CCCCCCC(=O)N[C@H](C(=O)NCc1ccc(NC(=N)N)cc1)c1ccc(OCc2ccccc2)cc1.O=C(O)C(F)(F)F          1.0
 2  N=C(N)Nc1ccc(CNC(=O)[C@@H](NC(=O)c2ccc(Oc3ccccc3)cc2)c2ccc(OCc3ccccc3)cc2)cc1.O=C(O)C(F)(F)F          1.0
 3  CCCCCC(=O)N[C@H](C(=O)N[C@@H](CCCCN)C(N)=O)c1ccc(OCc2ccccc2)cc1          0.0
 4  CCCCCC(=O)N[C@H](C(=O)NCc1ccc(N)nc1)c1ccc(OCc2ccccc2)cc1.O=C(O)C(F)(F)F          0.0
 5  CCCCCC(=O)N[C@H](C(=O)NCc1ccc(NC(N)=O)cc1)c1ccc(OCc2ccccc2)cc1          0.0
 6  CCCCCCCC(=O)N[C@H](C(=O)NCc1ccc(NC(=N)N)cc1)c1ccc(OCc2ccccc2)cc1.O=C(O)C(F)(F)F          1.0
 7  CCCCCC(=O)N[C@H](C(=O)NCc1ccc(NC(=N)N)cc1)c1ccccc1.O=C(O)C(F)(F)F          0.0
 8  COc1cccc(COc2ccc(C(=O)N[C@H](C(=O)NCc3ccc(NC(=N)N)cc3)c3ccc(OCc4ccccc4)cc3)cc2)c1.O=C(O)C(F)(F)F          1.0
 9  N=C(N)Nc1ccc(CNC(=O)[C@@H](NC(=O)c2ccc(-c3ccccc3)cc2)c2ccc(OCc3ccccc3)cc2)cc1.O=C(O)C(F)(F)F          1.0
10  N=C(N)Nc1ccc(CNC(=O)[C@@H](NC(=O)CC2CCCCC2)c2ccc(OCc3ccccc3)cc2)cc1.O=C(O)C(F)(F)F          1.0
11  N=C(N)Nc1ccc(CNC(=O)[C@@H](NC(=O)Cc2ccc(-c3ccccc3)cc2)c2ccc(OCc3ccccc3)cc2)cc1.O=C(O)C(F)(F)F          1.0
12  CCCCCC(=O)N[C@H](C(=O)Nc1ccc2[nH]ncc2c1)c1ccc(OCc2ccccc2)cc1          0.0
13  CCCCCC(=O)N[C@H](C(=O)NCCCCN)c1ccc(OCc2ccccc2)cc1          0.0
14  CCCCCC(=O)N[C@H](C(=O)NCc1cccc(CNC(=N)N)c1)c1ccc(OCc2ccccc2)cc1          1.0
15  CCCCCC(=O)N[C@@H](C(=O)NCc1ccc(NC(=N)N)cc1)c1ccc(OCc2ccc(Cl)c(Cl)c2)cc1.O=C(O)C(F)(F)F          1.0
16  CCCCCCCCCC(=O)N[C@H](C(=O)NCc1ccc(NC(=N)N)cc1)c1ccc(OCc2ccccc2)cc1.O=C(O)C(F)(F)F          1.0
17  CCCCCC(=O)N[C@H](C(=O)NCCCCCCN)c1ccc(OCc2ccccc2)cc1          0.0
18  CCCCCC(=O)N[C@@H](C(=O)NCc1ccc(NC(=N)N)cc1)c1ccc(OCc2ccccc2)cc1.O=C(O)C(F)(F)F          1.0
19  N=C(N)Nc1ccc(CNC(=O)[C@@H](NC(=O)c2ccc(-c3ccc(Cl)cc3)cc2)c2ccc(OCc3ccccc3)cc2)cc1.O=C(O)C(F)(F)F          1.0
20  CCCCCC(=O)N[C@H](C(=O)Nc1ccc(CN)cc1)c1ccc(OCc2ccccc2)cc1.O=C(O)C(F)(F)F          0.0
21  CCCCCC(=O)N[C@@H](C(=O)NCc1ccc(NC(=N)N)cc1)c1ccc(OCc2ccc(C(F)(F)F)cc2)cc1.O=C(O)C(F)(F)F          1.0
22  CCCCCC(=O)N[C@H](C(=O)NCc1ccc(NC(=N)N)cc1)c1ccc(OCc2c(Cl)cccc2Cl)cc1.O=C(O)C(F)(F)F          1.0
23  CCCCCC(=O)N[C@H](C(=O)Nc1ccc(N)cc1)c1ccc(OCc2ccccc2)cc1.O=C(O)C(F)(F)F          0.0
24  CCCCCC(=O)N[C@H](C(=O)NCc1ccncc1)c1ccc(OCc2ccccc2)cc1          0.0

These entries and their values trace back to ChEMBL document CHEMBL4619777.
